Test system: Escherichia coli
procedure text: Antibacterial activity against Escherichia coli X580 at 4 mg/ml by hole plate assay
Type: functional
protocol conditions: read-out: DIZ
Reported zone of inhibition at 4000 µg/mL values are given for each entry in this list.

{"molecule": "COC(=O)[C@]1(CO)NC(=O)C(C)(C)[C@@]1(O)CCCCCc1cc(CNC(=O)C(C)(C)C(O)CCCCc2ccccc2)on1 (stereo partly specified)", "target under test": "Escherichia coli", "zone of inhibition at 4000 µg/mL, mm": 14}
{"molecule": "COC(=O)[C@]1(CO)NC(=O)C(C)(C)[C@@]1(O)CCCCCc1cc(CNC(=O)C(C)(C)C(O)c2ccccc2)on1 (stereo partly specified)", "target under test": "Escherichia coli", "zone of inhibition at 4000 µg/mL, mm": 13}
{"molecule": "COC(=O)[C@]1(CO)NC(=O)C(C)(C)[C@@]1(O)C#CCCCCn1cc(CNC(=O)C(C)(C)C(O)c2ccccc2)nn1 (stereo partly specified)", "target under test": "Escherichia coli", "zone of inhibition at 4000 µg/mL, mm": 15}
{"molecule": "COC(=O)[C@]12CO[C@H](C(C)(C)C)N1C(=O)C(C)(C)[C@@]2(O)C#CCCCCBr", "target under test": "Escherichia coli", "zone of inhibition at 4000 µg/mL, mm": 14}
{"molecule": "CCCCCCCC(O)C(C)(C)C(=O)NCc1cc(CCCCC[C@]2(O)C(C)(C)C(=O)N[C@@]2(CO)C(=O)OC)no1 (stereo partly specified)", "target under test": "Escherichia coli", "zone of inhibition at 4000 µg/mL, mm": 17}
{"molecule": "COC(=O)[C@]12CO[C@H](C(C)(C)C)N1C(=O)C(C)(C)[C@@]2(O)C#CCCCCn1cc(CNC(=O)C(C)(C)C(O)c2ccccc2)nn1 (stereo partly specified)", "target under test": "Escherichia coli", "zone of inhibition at 4000 µg/mL, mm": 14}
{"molecule": "COC(=O)[C@]1(CO)NC(=O)C(C)(C)[C@@]1(O)C#CCCCCn1cc(CNC(=O)C(C)(C)C(O)CCCCc2ccccc2)nn1 (stereo partly specified)", "target under test": "Escherichia coli", "zone of inhibition at 4000 µg/mL, mm": 14}
{"molecule": "COC(=O)[C@]12CO[C@H](C(C)(C)C)N1C(=O)C(C)(C)[C@@]2(O)C#CCCCCn1cc(CNC(=O)C(C)(C)C(O)CCCCc2ccccc2)nn1 (stereo partly specified)", "target under test": "Escherichia coli", "zone of inhibition at 4000 µg/mL, mm": 13}
{"molecule": "COC(=O)[C@]12CO[C@H](C(C)(C)C)N1C(=O)C(C)(C)[C@@]2(O)CCCCCc1cc(CNC(=O)C(C)(C)C(O)CCCCc2ccccc2)on1 (stereo partly specified)", "target under test": "Escherichia coli", "zone of inhibition at 4000 µg/mL, mm": 15}
{"molecule": "COC(=O)[C@]12CO[C@H](C(C)(C)C)N1C(=O)C(C)(C)[C@@]2(O)C#CCNC(=O)C(C)(C)C(O)c1ccccc1 (stereo partly specified)", "target under test": "Escherichia coli", "zone of inhibition at 4000 µg/mL, mm": 17}
{"molecule": "CCCCCCCC(O)C(C)(C)C(=O)NCc1cn(CCCCC#C[C@]2(O)C(C)(C)C(=O)N3[C@@H](C(C)(C)C)OC[C@@]32C(=O)OC)nn1 (stereo partly specified)", "target under test": "Escherichia coli", "zone of inhibition at 4000 µg/mL, mm": 14}
